Origin of values: ChEMBL document CHEMBL1145928

measured-target: Delta-type opioid receptor (Homo sapiens)
test-details: Antagonistic activity against cloned human Opioid receptor delta 1 using DPDPE as ligand in [35S]GTP-gamma-S, assay
Assay type: functional
Think of 1 nM as a floor: if Ke stands on it or above, it is 1 (yes); beneath it, 0 (no).

Check out these entries, answers already filled in.
Data request: Quick check, Ke >= 1 nM? `N/C(=N/Cc1ccccc1)Nc1ccc2[nH]c3c(c2c1)C[C@@]1(O)[C@H]2Cc4ccc(O)c5c4[C@@]1(CCN2CC1CC1)[C@H]3O5`
Data returned: 1 (yes)

Data request: Quick check, Ke >= 1 nM? `CCCN/C(=N\CC1CC1)Nc1ccc2[nH]c3c(c2c1)C[C@@]1(O)[C@H]2Cc4ccc(O)c5c4[C@@]1(CCN2CC1CC1)[C@H]3O5`
Data returned: 1 (yes)

Data request: Quick check, Ke >= 1 nM? `N/C(=N\CCc1ccc2[nH]c3c(c2c1)C[C@@]1(O)[C@H]2Cc4ccc(O)c5c4[C@@]1(CCN2CC1CC1)[C@H]3O5)NCc1ccccc1`
Data returned: 1 (yes)

Data request: Quick check, Ke >= 1 nM? `N/C(=N\CCc1ccc2[nH]c3c(c2c1)C[C@@]1(O)[C@H]2Cc4ccc(O)c5c4[C@@]1(CCN2CC1CC1)[C@H]3O5)NCc1ccc(N)cc1`
Data returned: 0 (no)

Data request: Quick check, Ke >= 1 nM? `N=C(N)NCc1ccc2[nH]c3c(c2c1)C[C@@]1(O)[C@H]2Cc4ccc(O)c5c4[C@@]1(CCN2CC1CC1)[C@H]3O5`
Data returned: 1 (yes)

Continue with the next compound.
Data request: Quick check, Ke >= 1 nM? `CCCC/N=C(\NCCCC)Nc1ccc2[nH]c3c(c2c1)C[C@@]1(O)[C@H]2Cc4ccc(O)c5c4[C@@]1(CCN2CC1CC1)[C@H]3O5`
Data returned: 1 (yes)

###

Entries and their measured Ke follow.
measured-target: Delta-type opioid receptor (Homo sapiens, UniProt P41143)
Sequence (P41143 whole entry): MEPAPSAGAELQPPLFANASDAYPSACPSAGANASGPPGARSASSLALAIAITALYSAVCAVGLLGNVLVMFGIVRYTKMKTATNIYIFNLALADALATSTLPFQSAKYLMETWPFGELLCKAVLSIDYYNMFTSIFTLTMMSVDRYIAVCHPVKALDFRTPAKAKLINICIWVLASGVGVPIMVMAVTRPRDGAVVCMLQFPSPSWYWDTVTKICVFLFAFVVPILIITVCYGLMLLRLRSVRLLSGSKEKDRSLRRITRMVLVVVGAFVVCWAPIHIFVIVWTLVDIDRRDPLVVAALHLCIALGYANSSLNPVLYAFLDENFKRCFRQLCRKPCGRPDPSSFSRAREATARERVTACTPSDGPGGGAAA
test-details: Antagonistic activity against cloned human Opioid receptor delta 1 using DPDPE as ligand in [35S]GTP-gamma-S, assay
Format: functional
Note: unit nM is implicit; provide only the numeric part.

In the examples that follow, each entry is paired with its recorded Ke.
Record summary for `N=C(N)NCCc1ccc2[nH]c3c(c2c1)C[C@@]1(O)[C@H]2Cc4ccc(O)c5c4[C@@]1(CCN2CC1CC1)[C@H]3O5` : reported Ke = 0.88

Record summary for `CCC/N=C(\NCCC)Nc1ccc2[nH]c3c(c2c1)C[C@@]1(O)[C@H]2Cc4ccc(O)c5c4[C@@]1(CCN2CC1CC1)[C@H]3O5` : reported Ke = 2.43

Record summary for `N/C(=N\CCc1ccc2[nH]c3c(c2c1)C[C@@]1(O)[C@H]2Cc4ccc(O)c5c4[C@@]1(CCN2CC1CC1)[C@H]3O5)NCc1ccc(Cl)cc1` : reported Ke = 1.48

Record summary for `CCCC/N=C(\NCCCC)NCCc1ccc2[nH]c3c(c2c1)C[C@@]1(O)[C@H]2Cc4ccc(O)c5c4[C@@]1(CCN2CC1CC1)[C@H]3O5` : reported Ke = 1.05

Record summary for `N/C(=N/Cc1ccc([N+](=O)[O-])cc1)Nc1ccc2[nH]c3c(c2c1)C[C@@]1(O)[C@H]2Cc4ccc(O)c5c4[C@@]1(CCN2CC1CC1)[C@H]3O5` : reported Ke = 16.7

Further cases:
Record summary for `N/C(=N/Cc1ccc(N)cc1)Nc1ccc2[nH]c3c(c2c1)C[C@@]1(O)[C@H]2Cc4ccc(O)c5c4[C@@]1(CCN2CC1CC1)[C@H]3O5` : reported Ke = 10.8

###

measured-target: Kappa-type opioid receptor (Homo sapiens)
Sequence (P41145 whole entry): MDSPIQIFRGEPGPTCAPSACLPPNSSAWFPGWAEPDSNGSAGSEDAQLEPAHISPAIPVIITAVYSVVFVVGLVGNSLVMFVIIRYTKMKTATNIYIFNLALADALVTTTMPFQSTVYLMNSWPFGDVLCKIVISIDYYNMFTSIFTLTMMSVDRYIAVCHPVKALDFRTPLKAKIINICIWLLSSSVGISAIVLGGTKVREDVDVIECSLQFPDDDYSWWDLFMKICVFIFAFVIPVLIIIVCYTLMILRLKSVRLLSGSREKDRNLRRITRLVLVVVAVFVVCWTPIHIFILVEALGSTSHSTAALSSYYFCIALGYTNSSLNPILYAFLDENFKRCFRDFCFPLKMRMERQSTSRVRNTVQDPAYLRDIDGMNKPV
test-details: Antagonistic activity against cloned human Opioid receptor kappa 1 using U69,593 as ligand in [35S]GTP-gamma-S, assay
Type: functional
observed-property: Ke (nM)
Note: unit nM is implicit; provide only the numeric part.

In the examples that follow, each entry is paired with its recorded Ke.
Record summary for `N/C(=N\CCc1ccc2[nH]c3c(c2c1)C[C@@]1(O)[C@H]2Cc4ccc(O)c5c4[C@@]1(CCN2CC1CC1)[C@H]3O5)NCc1ccc(Cl)cc1` : reported Ke = 0.23

Record summary for `CCCC/N=C(\NCCCC)NCCc1ccc2[nH]c3c(c2c1)C[C@@]1(O)[C@H]2Cc4ccc(O)c5c4[C@@]1(CCN2CC1CC1)[C@H]3O5` : reported Ke = 0.39

Record summary for `N/C(=N/Cc1ccc(Cl)cc1)Nc1ccc2[nH]c3c(c2c1)C[C@@]1(O)[C@H]2Cc4ccc(O)c5c4[C@@]1(CCN2CC1CC1)[C@H]3O5` : reported Ke = 0.14

Further cases:
Record summary for `Oc1ccc2c3c1O[C@H]1c4[nH]c5ccc(N/C(=N/CC6CC6)NCc6ccccc6)cc5c4C[C@@]4(O)[C@@H](C2)N(CC2CC2)CC[C@]314` : reported Ke = 0.17

Record summary for `N/C(=N\CCc1ccc2[nH]c3c(c2c1)C[C@@]1(O)[C@H]2Cc4ccc(O)c5c4[C@@]1(CCN2CC1CC1)[C@H]3O5)NCc1ccc([N+](=O)[O-])cc1` : reported Ke = 0.17

Record summary for `N/C(=N/Cc1ccc(O)cc1)Nc1ccc2[nH]c3c(c2c1)C[C@@]1(O)[C@H]2Cc4ccc(O)c5c4[C@@]1(CCN2CC1CC1)[C@H]3O5` : reported Ke = 0.1

Record summary for `N/C(=N/Cc1ccc(N)cc1)Nc1ccc2[nH]c3c(c2c1)C[C@@]1(O)[C@H]2Cc4ccc(O)c5c4[C@@]1(CCN2CC1CC1)[C@H]3O5` : reported Ke = 0.09

Record summary for `N=C(N)NCCc1ccc2[nH]c3c(c2c1)C[C@@]1(O)[C@H]2Cc4ccc(O)c5c4[C@@]1(CCN2CC1CC1)[C@H]3O5` : reported Ke = 0.4

###

Observed pKi, system Kappa-type opioid receptor (Homo sapiens).
In simple prose, pKi is minus the logarithm base ten of a concentration in moles per litre.

Record summary for `N=C(N)NCc1ccc2[nH]c3c(c2c1)C[C@@]1(O)[C@H]2Cc4ccc(O)c5c4[C@@]1(CCN2CC1CC1)[C@H]3O5` : reported pKi = 9.74

Record summary for `N/C(=N/Cc1ccccc1)Nc1ccc2[nH]c3c(c2c1)C[C@@]1(O)[C@H]2Cc4ccc(O)c5c4[C@@]1(CCN2CC1CC1)[C@H]3O5` : reported pKi = 9.07

Record summary for `CCCC/N=C(\NCCCC)NCCc1ccc2[nH]c3c(c2c1)C[C@@]1(O)[C@H]2Cc4ccc(O)c5c4[C@@]1(CCN2CC1CC1)[C@H]3O5` : reported pKi = 8.32

Record summary for `N/C(=N/Cc1ccc(Cl)cc1)Nc1ccc2[nH]c3c(c2c1)C[C@@]1(O)[C@H]2Cc4ccc(O)c5c4[C@@]1(CCN2CC1CC1)[C@H]3O5` : reported pKi = 9.18

Record summary for `N/C(=N\CCc1ccc2[nH]c3c(c2c1)C[C@@]1(O)[C@H]2Cc4ccc(O)c5c4[C@@]1(CCN2CC1CC1)[C@H]3O5)NCc1ccc(Cl)cc1` : reported pKi = 8.62

Record summary for `N/C(=N\CCc1ccc2[nH]c3c(c2c1)C[C@@]1(O)[C@H]2Cc4ccc(O)c5c4[C@@]1(CCN2CC1CC1)[C@H]3O5)NCc1ccc(N)cc1` : reported pKi = 9.02

Record summary for `CCC/N=C(\NCCC)Nc1ccc2[nH]c3c(c2c1)C[C@@]1(O)[C@H]2Cc4ccc(O)c5c4[C@@]1(CCN2CC1CC1)[C@H]3O5` : reported pKi = 8.57

Record summary for `N=C(N)NCCc1ccc2[nH]c3c(c2c1)C[C@@]1(O)[C@H]2Cc4ccc(O)c5c4[C@@]1(CCN2CC1CC1)[C@H]3O5` : reported pKi = 9.31

###

Observed pKi, system Mu-type opioid receptor (Homo sapiens, UniProt P35372).
In simple prose, pKi is minus the logarithm base ten of a concentration in moles per litre.

Record summary for `N/C(=N/Cc1ccccc1)Nc1ccc2[nH]c3c(c2c1)C[C@@]1(O)[C@H]2Cc4ccc(O)c5c4[C@@]1(CCN2CC1CC1)[C@H]3O5` : reported pKi = 7.98

Record summary for `CCCC/N=C(\NCCCC)Nc1ccc2[nH]c3c(c2c1)C[C@@]1(O)[C@H]2Cc4ccc(O)c5c4[C@@]1(CCN2CC1CC1)[C@H]3O5` : reported pKi = 7.74

Record summary for `N=C(N)NCc1ccc2[nH]c3c(c2c1)C[C@@]1(O)[C@H]2Cc4ccc(O)c5c4[C@@]1(CCN2CC1CC1)[C@H]3O5` : reported pKi = 7.43

Record summary for `N/C(=N/Cc1ccc(N)cc1)Nc1ccc2[nH]c3c(c2c1)C[C@@]1(O)[C@H]2Cc4ccc(O)c5c4[C@@]1(CCN2CC1CC1)[C@H]3O5` : reported pKi = 8.10

Record summary for `N/C(=N\CCc1ccc2[nH]c3c(c2c1)C[C@@]1(O)[C@H]2Cc4ccc(O)c5c4[C@@]1(CCN2CC1CC1)[C@H]3O5)NCc1ccc(Cl)cc1` : reported pKi = 8.11

Record summary for `N/C(=N\CCc1ccc2[nH]c3c(c2c1)C[C@@]1(O)[C@H]2Cc4ccc(O)c5c4[C@@]1(CCN2CC1CC1)[C@H]3O5)NCc1ccc(N)cc1` : reported pKi = 8.11

Record summary for `N/C(=N\CCc1ccc2[nH]c3c(c2c1)C[C@@]1(O)[C@H]2Cc4ccc(O)c5c4[C@@]1(CCN2CC1CC1)[C@H]3O5)NCc1ccc([N+](=O)[O-])cc1` : reported pKi = 8.04

Further cases:
Record summary for `N=C(N)NCCc1ccc2[nH]c3c(c2c1)C[C@@]1(O)[C@H]2Cc4ccc(O)c5c4[C@@]1(CCN2CC1CC1)[C@H]3O5` : reported pKi = 8.24
